MEASURED_TARGET: proprotein convertase subtilisin/kexin type 9 (PCSK9) (human, UniProt Q8NBP7 31-152)
Sequence (Q8NBP7 31-152, chain 1 of 2): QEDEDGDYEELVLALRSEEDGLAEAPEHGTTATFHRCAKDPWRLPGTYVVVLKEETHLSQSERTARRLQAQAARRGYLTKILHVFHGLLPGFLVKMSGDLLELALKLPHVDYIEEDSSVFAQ
Sequence (Q8NBP7 153-692, chain 2 of 2): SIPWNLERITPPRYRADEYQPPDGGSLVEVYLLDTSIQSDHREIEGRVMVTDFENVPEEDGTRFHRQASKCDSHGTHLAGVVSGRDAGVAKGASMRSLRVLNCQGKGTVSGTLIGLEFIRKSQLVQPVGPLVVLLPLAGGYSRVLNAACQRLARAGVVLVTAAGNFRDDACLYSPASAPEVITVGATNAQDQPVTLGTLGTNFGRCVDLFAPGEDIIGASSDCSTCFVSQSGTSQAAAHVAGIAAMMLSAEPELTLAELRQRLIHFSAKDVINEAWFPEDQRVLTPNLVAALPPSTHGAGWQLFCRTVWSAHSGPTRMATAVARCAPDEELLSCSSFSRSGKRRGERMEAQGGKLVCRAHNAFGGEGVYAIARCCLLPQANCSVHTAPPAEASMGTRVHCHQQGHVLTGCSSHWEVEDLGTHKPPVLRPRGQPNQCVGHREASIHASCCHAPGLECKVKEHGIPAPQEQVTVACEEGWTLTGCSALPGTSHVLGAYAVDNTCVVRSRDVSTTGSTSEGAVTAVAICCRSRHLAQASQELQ
PROCEDURE_SUMMARY: competition
Ends that are not written are not given here.
Provide the reported IC50 of each item.
The response must be a number in nM with no trailing unit.

Inquiry: Data request, read-out IC50, for SGDLMPWNLVRIGLLR [K9gvpep7]
Reply text: 635

Inquiry: Repeat with SGCRLPWNLQRIGLPC (not fully specified (bridges); cysteine pairing not given here) [K9gvpep4]
Reply text: 318
